Data provenance: PubChem BioAssay AID624367

# ASSAY_SUMMARY: lymphoblastoid cell cytotoxicity, dose response, cytotoxicity control, plate reader, dry powder, set 2 (AID 624367)
# CONDITION: Lymphoblastoid cell line (LCL) cytotoxicity, plate reader; at 35 µM (top of the series)
OUTCOME_MEASURE: activity change, negative = cytotoxicity (%)
One number for each entry, in %.

> print(dat)
                           structure.string  endpoint.value
1  O=C(Cc1ccccn1)NCC[C@@H]1CC[C@@H](NC(=O)Nc2ccc(Cl)cc2)[C@@H](CO)O1             1.2
2  CCC(=O)N1Cc2cc(C(=O)Nc3nccs3)nc(-c3cccc(-c4ccccc4OC)c3)c2[C@H]1CCO           -2.48
3  C[C@@H]1CN([C@@H](C)CO)C(=O)c2c(c3ccccc3n2C)-c2ccccc2CO[C@@H]1CN(C)C(=O)Nc1ccc(F)cc1           -5.86

I'm hoping you can list activity change, negative = cytotoxicity for every compound here, please.
1. COc1ccccc1C#Cc1ccc2c(c1)O[C@H](CN(C)Cc1cccnc1)[C@H](C)CN([C@@H](C)CO)S2(=O)=O
2. CN(C)c1ccc2c(c1)[C@@H]1C[C@@H](CC(=O)NCc3ccc(Oc4ccccc4)cc3)O[C@H](CO)[C@@H]1O2
3. Cc1noc(C)c1S(=O)(=O)Nc1ccc2c(c1)C(=O)N([C@H](C)CO)C[C@H](C)[C@@H](CN(C)Cc1ccc(C(F)(F)F)cc1)OCCCC[C@H](C)O2
4. C[C@H](NC(=O)C[C@@H]1C=C[C@@H](NC(=O)Cc2ccccn2)[C@H](CO)O1)c1ccccc1
5. CS(=O)(=O)Nc1ccc2c(c1)[C@@H]1C[C@H](CC(=O)NCC3CC3)O[C@H](CO)[C@@H]1O2
6. C[C@@H](NC(=O)C[C@H]1C=C[C@H](NC(=O)Cc2ccccn2)[C@H](CO)O1)c1ccccc1

output:
1: -1.62; 2: 4.68; 3: -4.42; 4: 3.26; 5: 1.53; 6: 1.04

====

# ASSAY_SUMMARY: lymphoblastoid cell cytotoxicity, dose response, cytotoxicity control, plate reader, dry powder, set 2 (AID 624367)
# CONDITION: Lymphoblastoid cell line (LCL) cytotoxicity, plate reader; at 35 µM (top of the series)
OUTCOME_MEASURE: activity change, negative = cytotoxicity (%)
One number for each entry, in %.

> print(dat)
                           structure.string  unit.info  endpoint.value
1  Cc1noc(C)c1S(=O)(=O)Nc1ccc2c(c1)C(=O)N([C@H](C)CO)C[C@@H](C)[C@@H](CN(C)Cc1ccc(C(F)(F)F)cc1)OCCCC[C@@H](C)O2          %            1.01

I'm hoping you can list activity change, negative = cytotoxicity for every compound here, please.
1. CC(C)NC(=O)N1Cc2cc(C(=O)NC3Cc4ccccc4C3)nc(-c3cccc(-c4cccnc4)c3)c2[C@H]1CCO
2. C[C@@H]1CN([C@H](C)CO)C(=O)Cc2cc(NC(=O)Cc3ccccc3)ccc2O[C@H]1CN(C)Cc1ccc(C(F)(F)F)cc1
3. C[C@@H]1CN([C@@H](C)CO)C(=O)Cc2cc(NC(=O)Cc3ccccc3)ccc2O[C@@H]1CN(C)Cc1ccc(C(F)(F)F)cc1
4. C[C@@H]1CN([C@@H](C)CO)S(=O)(=O)c2ccc(C#C[C@@H](C)O)cc2O[C@H]1CN(C)Cc1ccc(-c2ccccc2)cc1

output:
-2.11
3.94
-0.78
-1.38
